Documented pIC50 across a set of molecules
target: ASK1 T838 auto phosphorylation (Homo sapiens, UniProt Q99683); construct: ASK1-V5 tagged full length plasmid; expressed in transfected cells; host or cells: HEK-293T; test: ASK1 (AUTO PHOS T838) assay in HEK-293T cells, MSD format; assay type: cell-based; conditions: HEK-293T cells transfected with ASK1-V5, 1 hr compound incubation; class symbols
Sequence (Q99683 whole entry): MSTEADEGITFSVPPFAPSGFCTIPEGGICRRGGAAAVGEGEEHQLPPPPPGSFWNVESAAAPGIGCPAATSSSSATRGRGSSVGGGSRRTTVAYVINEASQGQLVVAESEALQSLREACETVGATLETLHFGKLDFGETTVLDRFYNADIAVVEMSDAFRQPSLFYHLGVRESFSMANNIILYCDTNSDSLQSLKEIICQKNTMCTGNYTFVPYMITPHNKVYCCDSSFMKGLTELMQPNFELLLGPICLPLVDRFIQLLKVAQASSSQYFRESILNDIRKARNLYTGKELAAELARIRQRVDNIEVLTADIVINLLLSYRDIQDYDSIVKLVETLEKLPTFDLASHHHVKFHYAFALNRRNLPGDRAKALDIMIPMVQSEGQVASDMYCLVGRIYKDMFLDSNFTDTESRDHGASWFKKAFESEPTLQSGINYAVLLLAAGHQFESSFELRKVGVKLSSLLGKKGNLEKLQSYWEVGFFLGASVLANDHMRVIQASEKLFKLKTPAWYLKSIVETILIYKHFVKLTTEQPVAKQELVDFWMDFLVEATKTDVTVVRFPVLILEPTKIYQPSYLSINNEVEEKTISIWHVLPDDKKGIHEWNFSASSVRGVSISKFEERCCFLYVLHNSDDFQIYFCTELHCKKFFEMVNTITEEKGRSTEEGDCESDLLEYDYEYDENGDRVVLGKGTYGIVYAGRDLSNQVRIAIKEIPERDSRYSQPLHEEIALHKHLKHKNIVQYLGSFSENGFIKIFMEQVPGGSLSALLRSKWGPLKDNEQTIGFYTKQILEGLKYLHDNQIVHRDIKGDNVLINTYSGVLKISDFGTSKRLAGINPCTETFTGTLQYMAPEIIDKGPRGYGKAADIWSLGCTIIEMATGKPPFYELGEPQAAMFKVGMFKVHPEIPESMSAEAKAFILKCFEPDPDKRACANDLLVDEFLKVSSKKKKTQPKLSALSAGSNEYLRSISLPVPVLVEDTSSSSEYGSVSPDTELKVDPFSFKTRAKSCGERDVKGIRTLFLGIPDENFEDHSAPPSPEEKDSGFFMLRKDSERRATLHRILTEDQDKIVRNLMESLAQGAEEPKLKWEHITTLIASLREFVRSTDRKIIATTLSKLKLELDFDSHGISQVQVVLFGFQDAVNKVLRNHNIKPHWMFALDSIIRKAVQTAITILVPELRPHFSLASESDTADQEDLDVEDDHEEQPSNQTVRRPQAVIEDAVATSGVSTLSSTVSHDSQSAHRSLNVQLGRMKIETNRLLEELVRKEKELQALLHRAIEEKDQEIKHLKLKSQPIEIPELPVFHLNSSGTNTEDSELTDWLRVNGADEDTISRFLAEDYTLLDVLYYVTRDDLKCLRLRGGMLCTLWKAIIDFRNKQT
pIC50: −log10 of the molar value.

Completed entries (count: 4):
Molecule: C[C@H]1CCCOc2ncc(-c3ccnnc3)cc2C(=O)Nc2cccc(n2)-c2nncn21
Measurement: ≥ 7.00
//
Molecule: C[C@H]1CN(c2cnc3c(c2)C(=O)Nc2cccc(n2)-c2nncn2[C@@H](C)CCCO3)CCN1C (single isomer, unassigned)
Measurement: 6.00 to 7.00
//
Molecule: CC1CCCOc2ncccc2C(=O)Nc2cccc(n2)-c2nncn21 (stereo not drawn)
Measurement: 6.00 to 7.00
//
Molecule: C[C@H]1CCCOc2ncc(-n3ccc(C(F)(F)F)n3)cc2C(=O)Nc2cccc(n2)-c2nncn21
Measurement: 6.00 to 7.00

Record C[C@H]1CCCOc2ncc(S(C)(=O)=O)cc2C(=O)Nc2cccc(n2)-c2nncn21 . Reported pIC50: 6.00 to 7.00

Record C[C@H]1CCCOc2ncc(Br)cc2C(=O)Nc2cccc(n2)-c2nncn21 (single isomer, unassigned) . Reported pIC50: ≥ 7.00

Record C[C@H]1CCCOc2ncc(-c3cnn(CCN(C)C)c3)cc2C(=O)Nc2cccc(n2)-c2nncn21 . Reported pIC50: ≥ 7.00
